Please go through the items and note down their IC50 (ug/ml), pseudovirus neutralisation, TZM-bl assay.
Target: HIV-1 JR-FL(E168K) Env on pseudovirus (HIV-1 strain JR-FL)
Assay: cell-based or functional assay

Qu. I have this binder here, 1469_M23 (PG16) antibody, sister clone of 1443_C16 (antibody, V domains shown) VH: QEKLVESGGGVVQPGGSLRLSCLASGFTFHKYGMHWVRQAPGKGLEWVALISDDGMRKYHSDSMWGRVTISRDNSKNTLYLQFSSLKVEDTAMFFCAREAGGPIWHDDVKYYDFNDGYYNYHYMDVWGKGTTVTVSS VL: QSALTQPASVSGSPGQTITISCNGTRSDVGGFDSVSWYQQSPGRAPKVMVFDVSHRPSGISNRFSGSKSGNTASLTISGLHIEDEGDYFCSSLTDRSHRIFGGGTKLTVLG , and I need its recorded IC50 (ug/ml), pseudovirus neutralisation, TZM-bl assay.
Ans. 0.005 µg/mL

Qu. Quick one: IC50 (ug/ml), pseudovirus neutralisation, TZM-bl assay for 1489_I13 (PG16) antibody, sister clone of 1443_C16 (antibody, V domains shown) VH: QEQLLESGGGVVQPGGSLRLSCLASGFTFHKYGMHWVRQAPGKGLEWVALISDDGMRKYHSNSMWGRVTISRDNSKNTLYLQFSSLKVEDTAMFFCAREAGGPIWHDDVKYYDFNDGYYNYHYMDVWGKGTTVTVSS VL: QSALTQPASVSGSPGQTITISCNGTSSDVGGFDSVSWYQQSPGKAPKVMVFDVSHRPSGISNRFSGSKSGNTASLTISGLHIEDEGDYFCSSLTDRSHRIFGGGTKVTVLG ?
Ans. 0.005 µg/mL

Qu. If you can, please state the reported IC50 (ug/ml), pseudovirus neutralisation, TZM-bl assay value of 1456_A12 (PG16) antibody, sister clone of 1443_C16 (antibody, V domains shown) VH: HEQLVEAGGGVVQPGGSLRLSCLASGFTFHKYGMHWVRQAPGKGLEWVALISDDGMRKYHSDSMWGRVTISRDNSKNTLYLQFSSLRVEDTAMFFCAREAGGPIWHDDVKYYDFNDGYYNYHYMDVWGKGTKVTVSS VL: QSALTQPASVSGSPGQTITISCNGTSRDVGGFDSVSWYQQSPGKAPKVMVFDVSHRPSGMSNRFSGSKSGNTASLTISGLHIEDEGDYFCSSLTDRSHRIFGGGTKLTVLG .
Ans. 0.003 µg/mL
